test-system: beta-klotho
assay-info: cell-based or functional assay

binder	EC50, ELK-luciferase assay (nM)
PEGylated FGF21 mutant H125C (ligand, 20 kDa methoxy-PEG-maleimide on Cys 125) MHPIPDSSPLLQFGGQVRQRYLYTDDAQQTEAHLEIREDGTVGGAADQSPESLLQLKALKPGVIQILGVKTSRFLCQRPDGALYGSLHFDPEACSFRELLLEDGYNVYQSEAHGLPLHLPGNKSPCRDPAPRGPARFLPLPGLPPAPPEPPGILAPQPPDVGSSDPLSMVGPSQGRSPSYAS	4.5
PEGylated FGF21 mutant D46C (ligand, 20 kDa methoxy-PEG-maleimide on Cys 46) MHPIPDSSPLLQFGGQVRQRYLYTDDAQQTEAHLEIREDGTVGGAACQSPESLLQLKALKPGVIQILGVKTSRFLCQRPDGALYGSLHFDPEACSFRELLLEDGYNVYQSEAHGLPLHLPGNKSPHRDPAPRGPARFLPLPGLPPAPPEPPGILAPQPPDVGSSDPLSMVGPSQGRSPSYAS	27.8
PEGylated FGF21 mutant R126C (ligand, 20 kDa methoxy-PEG-maleimide on Cys 126) MHPIPDSSPLLQFGGQVRQRYLYTDDAQQTEAHLEIREDGTVGGAADQSPESLLQLKALKPGVIQILGVKTSRFLCQRPDGALYGSLHFDPEACSFRELLLEDGYNVYQSEAHGLPLHLPGNKSPHCDPAPRGPARFLPLPGLPPAPPEPPGILAPQPPDVGSSDPLSMVGPSQGRSPSYAS	10
